Target: T1, biotinylated B7-H3 (B7-H3b), immune checkpoint protein
T1 construct: also called biotin immobilized B7-H3; streptavidin immobilized B7-H3
T1 sequence (Q5ZPR3 whole entry, species assumed, looked up): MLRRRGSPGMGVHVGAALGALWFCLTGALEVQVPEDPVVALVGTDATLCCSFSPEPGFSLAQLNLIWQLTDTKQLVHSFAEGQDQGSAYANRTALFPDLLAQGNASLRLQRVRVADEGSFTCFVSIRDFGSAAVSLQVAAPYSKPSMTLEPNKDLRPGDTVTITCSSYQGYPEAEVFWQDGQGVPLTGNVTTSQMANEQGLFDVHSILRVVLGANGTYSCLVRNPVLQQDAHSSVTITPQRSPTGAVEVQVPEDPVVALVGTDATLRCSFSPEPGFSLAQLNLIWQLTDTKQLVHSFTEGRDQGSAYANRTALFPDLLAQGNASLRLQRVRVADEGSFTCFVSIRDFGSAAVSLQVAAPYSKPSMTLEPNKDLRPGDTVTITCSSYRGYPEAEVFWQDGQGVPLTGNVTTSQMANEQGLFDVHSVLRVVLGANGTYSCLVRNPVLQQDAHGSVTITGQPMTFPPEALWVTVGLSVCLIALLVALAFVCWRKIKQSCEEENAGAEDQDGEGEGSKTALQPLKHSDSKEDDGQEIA
Assay: SPR, Biacore 8K single-cycle kinetics, biotinylated B7-H3 on NeutrAvidin chip, peptide as analyte
Readout Name: Kd (nM)
Give a bare numeral; the unit nM is implied.

**Q:** Report measured Kd; entry is WALQLCHSMFYTCKSG (N-terminal acetylation (ac); lactam (isopeptide) bridge Q4-K14; disulfide bond C6-C13, Made by solid phase synthesis on Rink Amide resin; also called Selected B1.1; oxidized B1.1 (with disulfide bridge))
**A:** 43.5
